system: ABL1(H396P)-nonphosphorylated; conditions: Compound Concentration (nM):1000;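 also: KINOMEscan scanMAX binding as percent activity remaining versus control; lower means stronger binding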
Mark Satisfied only when Percent Control stays strictly below 40%. Values equal to the cut-off are Not satisfied.

Recorded results for 2 molecules are shown here.
INSERT INTO assay_data (molecule, discrete_label) VALUES
  ('COc1ccc(COc2ccc(Cc3cnc(N)nc3N)cc2OC)cc1 [GW632580X]', 'Not satisfied'),
  ('Cl.O=C(Nc1ccc(Oc2ccc3[nH]c(NC(=O)c4ccco4)nc3c2)cc1)Nc1cc(C(F)(F)F)ccc1F [GW683134A]', 'Satisfied');

Quick check: does COc1cccc(-c2c[nH]c3c(N/N=C/c4ccncc4)ncnc23)c1 [GW814408X] have Percent Control under 40%?
Satisfied

Quick check: does NS(=O)(=O)c1ccc(Nc2ncc(-c3ccccc3)o2)cc1 [GW572399X] have Percent Control under 40%?
Satisfied
